conditions: buffer; pH 7.4; 200.0 µM
observationType: solubility kinetic (µg/mL)
All answers are understood in µg/mL, so give the number only.

>>> quantitativeresult("Cc1ccc(C(=O)OCC(=O)NC(=O)c2ccccc2)o1")
32.9
>>> quantitativeresult("CCOc1ccc(NS(=O)(=O)c2cc(NC(=O)C3CC3)ccc2C)cc1Br")
3
>>> quantitativeresult("COc1cc2c(cc1OC)CN(C(=O)c1oc3ccccc3c1C)CC2")
27.2
>>> quantitativeresult("O=C(CCCOc1ccccc1)NC(=S)Nc1ccccc1")
1.8
>>> quantitativeresult("Cn1cc(C(=O)C(=O)NCCc2ccccc2)c2ccccc21")
0.6
>>> quantitativeresult("COc1cccc(C(=O)N2CCCN(C)CC2)c1OC")
36.2
>>> quantitativeresult("N#Cc1cccc(CS(=O)(=O)c2ccc(Cl)cc2)c1")
38.2
>>> quantitativeresult("O=C(O)CCCCCNC(=O)/C=C/c1ccco1")
26.2

Endpoint output: solubility kinetic of "NC(=O)c1c(NC(=O)c2ccccc2)sc2c1CCCC2" . Value?
0.8

Again, but for "CCOC(=O)Cc1csc(NC(=O)Nc2ccc(C)cc2)n1"
3.8

Here is the next molecule: "O=S(=O)(CCN1CCSCC1)c1ccc(Cl)cc1"
41.3

Same again, this time with CCOc1ccc(S(=O)(=O)NCCC(=O)NC2CCC(C)CC2)cc1 (configuration not stated)
37.7

Cool, now "CCN1CCc2c(OCc3ccc(C)cc3)cccc2C1=O"
18.9

Repeat for the following molecule: "COc1ccc(/C=C2\C(=O)ON=C2c2ccccc2)cc1OC"
45.7

Can you handle COC(=O)c1[nH]c2c(c1C)C(=O)CC(c1cccc(OC)c1)C2 (configuration not stated) next?
2.1

---

settings: buffer; pH 7.4; 200.0 µM
Recorded solubility kinetic for the following compounds

>>> result("CN(C)/C=C1/NC(=S)NC1=O")
"> 25.7 µg/mL"

solubility kinetic lookup needed for "c1coc(-c2ccnc(-c3ccncc3)n2)c1" , thanks.
> 33.5 µg/mL

Follow-up item: "COc1ccc(-n2c(=S)[nH]c3sc4c(c3c2=O)CCN(C)C4)cc1"
> 53.9 µg/mL

Likewise for "COC(=O)c1ccc(NC(=O)CCN2CCOCC2)cc1" ?
> 43.9 µg/mL

Next up: "CCOC1(/N=C(\C)NS(=O)(=O)c2ccc(Cl)cc2)C(C)=CC(=O)C=C1C"
> 59.5 µg/mL

Follow-up entry: Cc1cccc(C)c1NC(=O)N1C2CCC1CC(O)(c1cccnc1)C2 (centres undefined)
> 52.7 µg/mL

---

settings: buffer; pH 7.4; 200.0 µM
observationType: solubility kinetic (µg/mL)
Value expressed in µg/mL; do not type the unit.

// below: answered molecules
>>> quantitativeresult("NC(=O)c1ccc(N=Cc2c(O)ccc3ccccc23)cc1")
10.3
>>> quantitativeresult("N#Cc1ccc(OC(=O)Cc2ccsc2)cc1")
35.5
>>> quantitativeresult("CC(NC(=O)c1ccncc1)c1ccccc1 (configuration not stated)")
26.5

Now consider a different molecule.
Item "CC1CCN(C(=O)COC(=O)/C=C/c2ccc([N+](=O)[O-])cc2)CC1" has what recorded solubility kinetic?
5.7

---

settings: buffer; pH 7.4; 200.0 µM
observationType: solubility kinetic

Example entries and their recorded answers appear below.
>>> result("C[n+]1ccccc1/C=N/O.[I-]")
"> 39.6 µg/mL"
>>> result("CC(=O)c1sc(NC(=O)c2ccc(C)c(C)c2)nc1C")
"< 0.3 µg/mL"
>>> result("COc1ccc(CNC(=O)c2cc3ccccc3o2)cc1OC")
"> 46.7 µg/mL"
>>> result("CCCCn1c(N)c(N(C)C(=O)C2CC(=O)N(Cc3ccco3)C2)c(=O)[nH]c1=O (stereo not drawn)")
"> 60.5 µg/mL"
>>> result("O=C(O)c1cc2c(cn1)[nH]c1ccccc12")
"> 31.8 µg/mL"

Which solubility kinetic is reported for this molecule? "O=C(Cn1c(=O)oc2ccccc21)N1CCCC1"
> 36.9 µg/mL

Could you do the same for "Cc1cc(OCC(=O)NCCc2c[nH]c3ccccc23)c2c(C)cc(=O)oc2c1" , please?
< 0.4 µg/mL

---

conditions: buffer; pH 7.4; 200.0 µM
Quick list: solubility kinetic per entry.

Take a look at these entries with their results.
>>> result("O=S(=O)(NCC1COc2ccccc2O1)c1ccccc1F (stereo not given)")
"> 48.5 µg/mL"
>>> result("COc1ccc(NC(=O)COc2ccc(Br)cc2)c(OC)c1")
"< 0.8 µg/mL"
>>> result("O=C(NCCc1ccc(F)cc1)N[C@@H](Cc1ccccc1)C(=O)O")
"> 49.6 µg/mL"

Consider the compound shown here: "CNC(=O)COC(=O)/C=C/c1ccco1" What is its recorded solubility kinetic?
> 31.4 µg/mL

And the next one, "CNC(=O)c1[nH]cnc1C(=O)Nc1ccccn1" ?
> 36.8 µg/mL

Next entry: "Cc1ccc2cccc(OCC(=O)N3CCc4ccccc43)c2n1"
< 0.3 µg/mL

// next record "C/C(=N\NC(=O)c1cccc([N+](=O)[O-])c1)c1cccnc1"
> 42.6 µg/mL

What do you get for "COc1ccc(C(=O)Nc2ccc(C3(C#N)CCCC3)cc2)cc1OC" ?
< 0.4 µg/mL

Next up: "Cc1ccccc1NC(=O)c1ccc(S(=O)(=O)N2CCCC2)cc1"
> 51.7 µg/mL

How about "Cc1ccc2c(c1)C(=O)CCCCC(=O)N2" ?
> 32.6 µg/mL

Try this compound next: "Cc1cccc(NC(=O)Cn2cc(C(=O)C3CC3)c3ccccc32)c1"
< 0.4 µg/mL

---

conditions: buffer; pH 7.4; 200.0 µM
observationType: solubility kinetic

Please review the following examples before continuing.
>>> result("NS(=O)(=O)c1cccc(NC(=O)CN2CCCc3ccccc32)c1")
"> 51.8 µg/mL"
>>> result("Cc1cccc(C)c1OCC(=O)NC1CC1")
"> 32.9 µg/mL"
>>> result("C/C(=N/NC(=O)C(C)n1nc(C)c([N+](=O)[O-])c1C)c1ccc(OCC(N)=O)cc1 (stereo unspecified)")
"> 60.4 µg/mL"

Look up solubility kinetic: "Cc1nn(Cc2cccc(C(=O)O)c2)c(C)c1[N+](=O)[O-]"
> 41.3 µg/mL

Next entry: "CN(C)CCCN(Cc1ccc2c(c1)OCO2)C(=O)NC1CCCCC1"
> 54.2 µg/mL

Check "CCN(CC)CCCNc1oc(/C=C/c2ccccc2)nc1C#N" too.
> 48.7 µg/mL

---

Overview of recorded solubility kinetic for various compounds
details: buffer; pH 7.4; 200.0 µM

The following compounds have reported results that may help.
>>> result("CCC(C)c1ccc(NC(=S)N2CCCC2)cc1 (centres undefined)")
"> 0.0394 mg/mL"
>>> result("NS(=O)(=O)c1ccc(CNC(=O)c2ccccn2)cc1")
"> 0.0437 mg/mL"
>>> result("CC1(C)CC2CC(C)(CN2C(=O)COC(=O)c2cccc([N+](=O)[O-])c2)C1 (centres undefined)")
"> 0.0541 mg/mL"

Fill in the blank: the reported solubility kinetic of "O=C(c1cc2ccccc2o1)N1CCCC1" is ____.
> 0.0323 mg/mL

Proceed to O=C(COC(=O)c1c(Cl)ccc(Cl)c1Cl)NCC1CCCO1 (centres undefined)
> 0.055 mg/mL

Try "Cc1ccc(S(=O)(=O)NCc2ccncc2)cc1C" next.
> 0.0415 mg/mL

Entry to check: "O=C(NCc1ccc2c(c1)OCO2)c1ccco1"
> 0.0368 mg/mL

Field entry: "O=C(NCCc1c[nH]c2ccccc12)c1cnccn1"
> 0.0399 mg/mL

// next record CCN1CCN(CC2COc3ccccc3O2)CC1.Cl (centres undefined)
> 0.0503 mg/mL

Lookup "COCCNC(=S)Nc1ccc2[nH]c(=O)[nH]c2c1"
> 0.0399 mg/mL

Same read-out for "Cc1nc(C)c(C(=O)Nc2cccc(C)c2C)s1" ?
> 0.0391 mg/mL

Do the same for "Nc1cc(=O)[nH]c(SCC(=O)c2ccc(O)cc2O)n1" please
> 0.044 mg/mL

Another: "CCn1cc(CN(C)S(=O)(=O)c2cccc([N+](=O)[O-])c2)cn1"
> 0.0487 mg/mL

Note, next up: "O=C(Nc1cc(S(=O)(=O)N2CCOCC2)ccc1Cl)c1ccncc1"
> 0.0573 mg/mL

---

conditions: buffer; pH 7.4; 200.0 µM
Would you mind sorting the entries by solubility kinetic according to these classes? low-valued: < 5 µg/mL; mid-valued: ≥ 5 µg/mL and < 20 µg/mL; high-valued: ≥ 20 µg/mL

Use the examples below as a reference point.
>>> grouplabel("CCOC(=O)c1ccc(NC(=O)CNC(=O)c2ccco2)cc1")
"mid-valued"
>>> grouplabel("CCn1cc(CCC(=O)NCCN2CCOCC2)c2ccccc21")
"high-valued"
>>> grouplabel("O=C(COc1ccc(Cl)cc1)Nc1ccccc1Cl")
"low-valued"

Into which bin does this compound go? CC(O)CN1CC(O)=C(c2nc3ccccc3s2)C1=N (stereo unspecified)
mid-valued

Another: Cc1ccc(S(=O)(=O)N(OCc2ccccc2)C(C)C(=O)O)cc1 (stereo unspecified)
high-valued

Now give it for O=C1c2ccccc2NC(c2ccc(O)cc2)N1c1ccccc1 (stereo unspecified) too.
mid-valued

Ok, now "Cc1cccc(NC(=O)c2ccc3c(c2)C(=O)N(c2ccccn2)C3=O)c1C"
low-valued

And what about the compound "O=[N+]([O-])c1ccccc1/C=N/OCc1ccccc1" ?
low-valued

Please do the same for "CC(C)(C)NC(=O)CCCCCCCC(=O)NC(C)(C)C" as well.
high-valued

Another compound to look at: "COC(=O)c1ccc(SCc2ccccc2)nc1"
low-valued

Here is the next compound: "CCNC(=O)COC(=O)c1sccc1C"
high-valued

Let us now turn to "Cc1nc(-c2cccc(NC(=O)c3ccc(Br)o3)c2)cs1"
mid-valued

Same lookup for "Cc1ccc(-c2nc3ccccc3nc2Cl)cc1" , please.
low-valued

Also "Cc1sc2ncnc(SCc3ccc(C(=O)O)cc3)c2c1C" ?
high-valued
